- tested target: Induced myeloid leukemia cell differentiation protein Mcl-1 (Homo sapiens) (UniProt Q07820)
- Sequence (Q07820 whole entry, looked up): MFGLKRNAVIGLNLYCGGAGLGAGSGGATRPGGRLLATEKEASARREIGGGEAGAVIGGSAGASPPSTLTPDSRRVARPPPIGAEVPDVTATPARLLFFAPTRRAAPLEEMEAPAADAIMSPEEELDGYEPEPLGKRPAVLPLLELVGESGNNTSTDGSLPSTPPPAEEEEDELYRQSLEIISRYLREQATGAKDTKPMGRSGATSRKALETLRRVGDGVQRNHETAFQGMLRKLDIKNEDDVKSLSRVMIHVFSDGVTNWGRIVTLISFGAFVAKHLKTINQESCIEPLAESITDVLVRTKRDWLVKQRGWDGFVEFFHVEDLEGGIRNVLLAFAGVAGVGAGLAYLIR
- assay overview: blockers of Bid binding to Mcl-1 – biochemical, TR-FRET, dose response (AID 1418)
- test context: Mcl-1/Bid peptide binding, TR-FRET (europium/Dy647), 2 hr
Activity calls are given as the source filed them. No rule for the calls is given here.
Possible outcomes: active, inactive

| compound | category label |
| --- | --- |
| Cc1cccc(C(=O)N2CCc3cc(-c4nc(NC(=O)Cn5nnc6ccccc6c5=O)sc4C)ccc32)c1 | inactive |
| Cc1n[nH]c(C)c1S(=O)(=O)N1CCN(c2ccccn2)CC1 | inactive |
| O=C(COC(=O)CC(NC(=O)c1ccccc1Cl)c1ccccc1)Nc1cccc(F)c1 (configuration not stated) | inactive |
| CCOc1ccc(N2C(=O)c3cccnc3C2Nc2ccc(F)cc2)cc1 (configuration not stated) | inactive |
| Cc1cccc(Cn2c(C)nc3c(N)c(C)c(C)cc32)c1 | inactive |
| CC1CCCN(C(=S)Nc2ccc3nc4n(c(=O)c3c2)CCCCC4)C1 (configuration not stated) | inactive |
| O=C(CSc1nnc(SCc2cccc3ccccc23)s1)N=Nc1c(O)[nH]c2ccccc12 | active |
| C=CCC1(/C=N/O)CCOC(C)(C)C1 (configuration not stated) | inactive |
| COc1ccc(NC(=S)NNc2ccc(S(=O)(=O)Nc3ccccc3C(=O)O)cc2[N+](=O)[O-])cc1 | active |
| C[N+](C)(C)c1ccc(/C=N/Nc2nc(Cl)c(C#N)c(Cl)c2Cl)cc1 | inactive |
| O=C(CCN1C(=O)/C(=C/c2cccc(Br)c2)SC1=S)NNC(=O)c1cccnc1 | active |
| Cc1nnc(Sc2cc(C(=O)NC3CC3)c3ccccc3n2)s1 | inactive |
